test system: HOP-92 NSCLC; test: NCI-60 one-dose screen, 48 h; conditions: 10 µM
Compounds without any hit were thinned out: in the full panel of roughly 83,000, 20% have a hit. Active and inactive are the calls of the source. Rule for the calls: active = growth percent below 10; inactive = the rest.
Outcomes: y = active, n = inactive

- Compound: "COc1cc(C2C(C#N)=C(c3c[nH]c4ccccc34)Nc3nc(N)[nH]c(=O)c32)cc(OC)c1OC (stereo not drawn)"
  Label Value: "n"
- Compound: "CNC(=O)c1cc(Oc2ccc(NC(=O)Nc3ccc(Cl)c(OC(C)C)c3)c(F)c2)ccn1"
  Label Value: "n"
- Compound: "CCOc1nc(-c2ccccc2)cc2c(O)c(C(=O)NC(C)C)[nH]c(=O)c12"
  Label Value: "n"
- Compound: "NCCNc1ccc2cc(-c3nc4ccccc4[nH]3)c(=O)oc2c1"
  Label Value: "n"
- Compound: "COc1ccc(-c2cc(/C=C/C(=O)c3ccc(N)cc3)[nH]n2)cc1OC"
  Label Value: "n"
- Compound: "COc1cc(C2C=C(c3ccc(Cl)c(Cl)c3)N=C3SC(C)=CN32)cc(OC)c1OC (stereo not drawn)"
  Label Value: "n"
- Compound: "CCCCCCN=C(N)CCCCCCCCCCC(N)=NCCCCCC"
  Label Value: "y"
- Compound: "CC(=O)N(O)c1ccc(/C=C/c2ccccc2)cc1"
  Label Value: "y"
- Compound: "Cc1cn(C(=O)/C(Cl)=C(/Cl)C(=O)O)c2ccccc12"
  Label Value: "n"
- Compound: "CCOC(=O)[C@@H](Cc1ccccc1)NC(=O)c1[nH]c2ccc(Cl)cc2c(=O)c1C"
  Label Value: "n"
- Compound: "O=c1c2cccc3c(Nc4ccc(Br)cn4)ccc(c32)c2nc3ccccc3n12"
  Label Value: "n"
- Compound: "COc1ccc(C2C=C(c3ccc(Cl)cc3)N=C3SC=CN32)c(Br)c1 (stereo not drawn)"
  Label Value: "n"
- Compound: "Cc1[nH]nc2c(=S)[nH]c(=O)[nH]c12"
  Label Value: "n"
- Compound: "O=CNc1c(Cl)cc2c(c1Cl)Cc1cc([N+](=O)[O-])ccc1-2"
  Label Value: "n"
- Compound: "CCCCCCCCCCN=C(c1ccc(N(C)C)cc1)c1ccc(N(C)C)cc1"
  Label Value: "n"
- Compound: "Cc1noc(C)c1-c1ccc2nc(NC(=O)[C@H]3CCN(C#N)C3)cn2c1"
  Label Value: "n"
- Compound: "O=c1[nH]c(=O)n(C2C[C@@H](O)[C@@H](CO)O2)cc1F (stereo partly drawn)"
  Label Value: "n"
- Compound: "Cc1ccc2c3c(cccc13)-c1ccccc1C2=O"
  Label Value: "n"

Each recorded value in this set is attributed to PubChem BioAssay (NCI).
